assay: SU-DIPG-XXV glioma cell viability, MIPE5.0 library, qHTS (AID 1347068);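 further: cells exposed to compound for 48 hours before viability readout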
Inconclusive results are not listed. Activity calls are given as the source filed them. Cut-off not given; nearly all actives show IC50 up to about 30 µM.
Your answer must be one of the following: active, inactive

compound	category label
COC(=O)[C@]12CCC(C)(C)C[C@H]1[C@H]1C(=O)C=C3[C@@]4(C)C=C(C#N)C(=O)C(C)(C)[C@@H]4CC[C@@]3(C)[C@]1(C)CC2	active

For the next question, use this compound.
What did the test return for COc1cc([C@@H]2c3cc4c(cc3[C@@H](O)C3COC(=O)C32)OCO4)cc(OC)c1O (some centres undefined) ?
active

* * *

test system: Aerobactin synthetase IucA (Klebsiella pneumoniae hvKP1); assay: Biochemical IucA enzyme inhibition primary screen of the Spectrum library (AID 1346200); conditions: malachite green pyrophosphate, A620, at 8 µM, stronger effect = lower value;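 further: 100% = wells without compound and 0% = wells lacking enzyme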
result type: activity remaining (%)
API: value field is a number in %; no unit string.

Use the examples below as a reference point.
> print(dat)
                                   compound         result.type  assay.result
1  CC(C(=O)O)c1ccc(-c2ccccc2)c(F)c1 (configuration not stated)  activity remaining           104
2  CC(C)NCC(O)COc1cccc2ccccc12 (configuration not stated)  activity remaining           105
3             O=c1c(O)cccc2cc(O)c(O)c(O)c12  activity remaining           107
4                 Nc1cc(-c2ccncc2)c[nH]c1=O  activity remaining           122
5       CN(C)CC/C=C1\c2ccccc2Sc2ccc(Cl)cc21  activity remaining           110
6  CC(=O)OC1CCC2(C)C3CC(=O)C4(C)C(CC5OC6(CCC(C)CO6)[C@@H](C)C54)C3CC[C@H]2C1 (some centres not stated)  activity remaining           102

Okay, next one:
Quick one: activity remaining of Cc1ccc(N(CC2=NCCN2)c2cccc(O)c2)cc1 ?
117

* * *

test system: Aerobactin synthetase IucA (Klebsiella pneumoniae, hypervirulent); assay: IucA enzyme inhibition, biochemical, LOPAC library, absorbance readout (AID 1346212); details: IucA enzyme assay, absorbance (OD) readout; stronger effect = lower value;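 tested at 8 µM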;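 further: 100% = no compound wells and 0% = no enzyme wells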
Consider the following compounds and their measured remaining activity readings.
All answers are understood in %, so give the number only.

compound	result type	assay result
CCN(CC)CCCCCCCCOC(=O)c1cc(OC)c(OC)c(OC)c1	remaining activity	100
CN=C(NC#N)NCCSCc1nc[nH]c1C	remaining activity	116
CCCNC(=O)NS(=O)(=O)c1ccc(Cl)cc1	remaining activity	103
CC(C)COC(=O)OCN1C(=O)CN(CCN2CC(=O)N(COC(=O)OCC(C)C)C(=O)C2)CC1=O	remaining activity	96.8
CCCn1c(=O)c2[nH]c(-c3ccc(S(=O)(=O)O)cc3)nc2n(CCC)c1=O	remaining activity	111
Cc1cc2c(cc1Cl)N(C(=O)Nc1ccc(Oc3cccnc3C)nc1)CC2	remaining activity	103
Cc1ccccc1/C=C/C1=NCCN1	remaining activity	120
Cc1oncc1C(=O)Nc1ccc(C(F)(F)F)cc1	remaining activity	110
CC(C)[N+](C)(CCOC(=O)C1c2ccccc2Oc2ccccc21)C(C)C	remaining activity	92.2
NCCSSCCN	remaining activity	117

Would you kindly look at the next entry?
Using the record for COC(=O)[C@@H](N)CCCN=C(N)N[N+](=O)[O-] , report its remaining activity.
117
